test system: U2OS; experiment: drug GRADE (percent of response due to cell death) (% (0-100)); higher = more death-driven response; details: 72 h
// label = Yes if drug GRADE is not less than 40, otherwise No

CCOc1ccccc1-n1c(C(C)N2CCN(C(=O)COc3ccc(Cl)cc3)CC2)nc2ccccc2c1=O (centres undefined) = Yes

Now take the following compound into account.
Decide: drug GRADE of `CO[C@@H]1C[C@@H](C[C@H]2CC[C@H](C)[C@H]([C@@H](C)C(=O)O)O2)O[C@]2(O[C@](C)([C@H]3CC[C@@](C)([C@@H]4O[C@@H]([C@H]5O[C@@](O)(CO)[C@H](C)C[C@@H]5C)C[C@@H]4C)O3)C[C@H]2C)[C@@H]1C` >= 40?
Yes

* * *

system: U2OS; experiment: normalized growth rate inhibition value (GR) relative to untreated cells (GR value (dimensionless, 1 = untreated growth)); higher = less growth inhibition; conditions: 0.0317369 µM; 72 h
Label scheme for normalized growth rate inhibition value: band 1 = under 0.8, band 2 = from 0.8 up to 0.9, band 3 = 0.9 and over

CC(=O)O[C@@]12CO[C@@H]1C[C@H](O)[C@@]1(C)C(=O)[C@H](O)C3=C(C)[C@@H](OC(=O)[C@H](O)[C@@H](NC(=O)OC(C)(C)C)c4ccccc4)C[C@@](O)([C@@H](OC(=O)c4ccccc4)[C@H]21)C3(C)C = band 1
Cc1c(N)nc([C@H](CC(N)=O)NC[C@H](N)C(N)=O)nc1C(=O)N[C@H](C(=O)N[C@H](C)[C@@H](O)[C@H](C)C(=O)N[C@H](C(=O)NCCc1nc(-c2nc(C(=O)NCCC[S+](C)C)cs2)cs1)[C@@H](C)O)[C@@H](OC1OC(CO)C(O)C(O)C1OC1OC(CO)C(O)C(OC(N)=O)C1O)c1cnc[nH]1 (some centres not stated) = band 3
Cc1nc(Nc2ncc(C(=O)Nc3c(C)cccc3Cl)s2)cc(N2CCN(CCO)CC2)n1 = band 2

Category lookup for the compound N.N.[Cl][Pt][Cl] [Cisplatin]
band 3

Next record, please: `CC(C)NC[C@@H](C(=O)N1CCN(c2ncnc3c2[C@H](C)C[C@H]3O)CC1)c1ccc(Cl)cc1`
band 3

* * *

Overview of reported fractional viability across a group of compounds:
system: U2OS; assay: fractional viability (live cells / total cells); higher = less cell death; conditions: 1 µM; 72 h
Please reply with the number alone, leaving off any unit.

Cn1nnc2c(C(N)=O)ncn2c1=O [Temozolamide] = 0.975

Give the reported fractional viability for CC[C@@H]1C(=O)N(C)c2cnc(Nc3ccc(C(=O)N[C@H]4CC[C@H](N5CCN(CC6CC6)CC5)CC4)cc3OC)nc2N1C(C)C [Volasertib] (system: U2OS).
0.548

Next record, please: Cc1cn(-c2cc(NC(=O)c3ccc(C)c(Nc4nccc(-c5cccnc5)n4)c3)cc(C(F)(F)F)c2)cn1 [Nilotinib]
0.972

Next record, please: CNC(=O)c1ccccc1Sc1ccc2c(/C=C/c3ccccn3)n[nH]c2c1 [Axitinib]
0.956

Next record, please: CC(=O)Nc1cccc(-n2c(=O)n(C3CC3)c(=O)c3c(Nc4ccc(I)cc4F)n(C)c(=O)c(C)c32)c1 [Trametinib]
0.466

Next record, please: C#Cc1cccc(Nc2ncnc3cc(OCCOC)c(OCCOC)cc23)c1 [Erlotinib]
0.96

Reference source for all entries: the supplement of paper PMC7394473
